# MEASURED TARGET: human CB2 receptor (Homo sapiens, UniProt P34972)
# Construct: expressed in transfected cells
# Sequence (P34972 whole entry): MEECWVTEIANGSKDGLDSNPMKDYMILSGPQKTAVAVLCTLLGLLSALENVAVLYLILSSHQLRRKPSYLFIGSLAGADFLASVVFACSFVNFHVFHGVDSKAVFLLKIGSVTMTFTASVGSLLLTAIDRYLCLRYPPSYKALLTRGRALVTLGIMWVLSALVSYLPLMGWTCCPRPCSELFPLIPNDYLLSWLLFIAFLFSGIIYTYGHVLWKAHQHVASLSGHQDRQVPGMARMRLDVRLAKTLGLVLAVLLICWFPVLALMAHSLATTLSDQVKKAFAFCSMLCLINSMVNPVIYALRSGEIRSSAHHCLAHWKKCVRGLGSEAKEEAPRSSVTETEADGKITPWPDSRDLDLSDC
# EXPERIMENT: Human CB2 receptor binding inhibition test ([3H]CP-55,940, CHO membrane fractions)
# CONDITION SET: [3H]CP-55,940, membrane fractions of CHO cells stably expressing human CB2 receptor, 25° C., 2 hours; read-out: CB2 IC50 (Inhibition of binding to human CB2 receptor)
Mark met for IC50 under 4 nM, not met if at or over.

Study these solved cases before continuing.
COMPOUND: Cc1c(C(C)(C)C)s/c(=N\C(=O)c2nccnc2Cl)n1CC1CC1 [compound 305]
DISCRETE LABEL: met
//
COMPOUND: Cc1ccc(C(=O)/N=c2\sc(C)c(C)n2CC2CC2)c(Br)c1 [compound 91]
DISCRETE LABEL: not met
//
COMPOUND: CC(C)(C)c1c/c(=N\C(=O)c2cc(C(F)(F)F)ccc2F)n(CC2CC2)s1 [compound 58]
DISCRETE LABEL: met
//
COMPOUND: Cc1c(C(C)(C)C)s/c(=N\C(=O)c2cc(I)ccc2F)n1CC1CC1 [compound 231]
DISCRETE LABEL: met

Could you now consider this next compound?
**Query** IC50 strictly < 4 nM for this compound? Cc1c(C(C)(C)C)s/c(=N\C(=O)c2cc(Br)ccc2F)n1CC1CC1 [compound 230]
**Result** met
